The measurements presented in this section are drawn from patent US11535643B2.

Would you kindly list MIC for each of these molecules?
Tested on: S. pyogenes
Test: Broth dilution MIC determination (CLSI) against S. pyogenes strains
Format: cell-based
Conditions: S. pyogenes mac resistant, strain MP-625 UNT-014 (Table N2)
From the text: Minimum inhibitory concentrations (MICs) for macrolides described herein have been determined for unique strains of S. aureus, S. pneumoniae, S. pyogenes, E. faecalis, E. coli, A. baumannii, K. pneumoniae, P. aeruginosa, and H. influenzae, including several multidrug-resistant strains, with a special focus on macrolide resistant mechanisms. Azithromycin and solithromycin were included as control compounds. CLSI standard procedures for broth dilution MIC determination were used. […]
The reply should contain only the number, in µg/mL.

Indicate its recorded MIC; the molecule in question is CCC1OC(=O)C(C)C(=O)C(C)C(OC2OC(C)CC(N3CCOC3CO)C2O)C(C)(OC)CC(C)CNC(C)C2N(CCCCn3cc(-c4cccc(N)c4)nn3)C(=O)OC12C (centres unmarked) 32

Indicate its recorded MIC; the molecule in question is CCC1OC(=O)C(C)C(=O)C(C)C(OC2OC(C)CC(N(CCO)CCO)C2O)C(C)(OC)CC(C)CNC(C)C2N(CCCCn3cc(-c4cccc(N)c4)nn3)C(=O)OC12C (centres unmarked) 16

Indicate its recorded MIC; the molecule in question is CCC1OC(=O)C(C)C(=O)C(C)C(OC2OC(C)CC(N(C)Cc3cccnc3)C2O)C(C)(OC)CC(C)CNC(C)C2N(CCCCn3cc(-c4cccc(N)c4)nn3)C(=O)OC12C (centres unmarked) 1

Indicate its recorded MIC; the molecule in question is CCC1OC(=O)C(C)C(=O)C(C)C(OC2OC(C)CC(NCc3cccnc3)C2O)C(C)(OC)CC(C)CNC(C)C2N(CCCCn3cc(-c4cccc(N)c4)nn3)C(=O)OC12C (centres unmarked) 4

Indicate its recorded MIC; the molecule in question is CCC1OC(=O)C(C)C(=O)C(C)C(OC2OC(C)CC(N(C)CC#N)C2O)C(C)(OC)CC(C)CNC(C)C2N(CCCCn3cc(-c4cccc(N)c4)nn3)C(=O)OC12C (centres unmarked) 1
